Dear all, this message contains Ka results, target or system Eukaryotic translation initiation factor 4E (Mus musculus) (UniProt P63073).
One number for each entry, in µM⁻¹.

Consider the reported Ka for these molecules:
C[n+]1cn([C@@H]2O[C@H](CO[P@@](=O)(S)OP(=O)(O)OP(=O)([O-])O)[C@@H](O)[C@H]2O)c2c1C(O)NC(N)=N2 (some centres undefined)	190
C[n+]1cn([C@@H]2O[C@H](COP(=O)(O)OP(=O)([O-])OP(=O)(O)OC[C@H]3O[C@@H](n4cnc5c(=O)[nH]c(N)nc54)[C@H](O)[C@@H]3O)[C@@H](O)[C@H]2O)c2nc(N)nc(O)c21	9.4

Hey, can you go through the list below and give me Ka for every item?
1. C[n+]1cn([C@@H]2O[C@H](CO[P@](=O)(S)OP(=O)([O-])OP(=O)(O)O)[C@@H](O)[C@H]2O)c2nc(N)nc(O)c21
2. C[n+]1cn([C@@H]2O[C@H](CO[P@@](=O)(S)OP(=O)([O-])OP(=O)(O)OC[C@H]3O[C@@H](n4cnc5c(=O)[nH]c(N)nc54)[C@H](O)[C@@H]3O)[C@@H](O)[C@H]2O)c2nc(N)nc(O)c21

Response:
1. 371
2. 10

====

ASSAYED_TARGET: Eukaryotic translation initiation factor 4E (Oryctolagus cuniculus, UniProt P29338)
Sequence (P29338 whole entry): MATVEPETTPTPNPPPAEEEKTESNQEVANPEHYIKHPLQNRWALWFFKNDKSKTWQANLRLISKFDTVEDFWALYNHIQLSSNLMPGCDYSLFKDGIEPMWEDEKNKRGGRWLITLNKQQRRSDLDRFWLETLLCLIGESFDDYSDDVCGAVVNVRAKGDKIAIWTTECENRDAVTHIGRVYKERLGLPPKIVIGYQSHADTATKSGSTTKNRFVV
ASSAY_PROTOCOL: Inhibition of eukaryotic initiation factor 4E in micrococcal nuclease-pretreated rabbit reticulocyte lysate assessed as inhibition of m7,3'-O-GpppG-capped 5'UTRbetaglob-LUC mRNA translation treated 60 mins before mRNA addition by luciferase-based luminometry
MEASURE: IC50 (nM)
Give bare numbers, in nM.

Reference set (2 entries):
C[n+]1cn([C@@H]2O[C@H](CO[P@](=O)(S)OP(=O)([O-])OP(=O)(O)O)[C@@H](O)[C@H]2O)c2nc(N)nc(O)c21	560
C[n+]1cn([C@@H]2O[C@H](CO[P@](=O)(S)OP(=O)(O)OP(=O)(O)OC[C@H]3O[C@@H](n4cnc5c(=O)[nH]c(N)nc54)[C@H](O)[C@@H]3O)[C@@H](O)[C@H]2O)c2nc(N)[n-]c(=O)c21	1200

The value of IC50 measured for the molecule `C[n+]1cn([C@@H]2O[C@H](CO[P@@](=O)(S)OP(=O)([O-])OP(=O)(O)OC[C@H]3O[C@@H](n4cnc5c(=O)[nH]c(N)nc54)[C@H](O)[C@@H]3O)[C@@H](O)[C@H]2O)c2nc(N)nc(O)c21` turned out to be 2100

====

ASSAY_PROTOCOL: Stability in presence of human DcpS assessed as complete degradation at 40 uM by HPLC-based assay
Assay type: ADME
MEASURE: Stability

Sample records with Stability:
C[n+]1cn([C@@H]2O[C@H](CO[P@](=O)(S)OP(=O)([O-])OP(=O)(O)O)[C@@H](O)[C@H]2O)c2nc(N)nc(O)c21	Stable
C[n+]1cn([C@@H]2O[C@H](COP(=O)(O)OP(=O)([O-])OP(=O)(O)OC[C@H]3O[C@@H](n4cnc5c(=O)[nH]c(N)nc54)[C@H](O)[C@@H]3O)[C@@H](O)[C@H]2O)c2nc(N)[nH]c(=O)c21	Unstable
C[n+]1cn([C@@H]2O[C@H](CO[P@](=O)(S)OP(=O)(O)OP(=O)(O)OC[C@H]3O[C@@H](n4cnc5c(=O)[nH]c(N)nc54)[C@H](O)[C@@H]3O)[C@@H](O)[C@H]2O)c2nc(N)[n-]c(=O)c21	Stable
C[n+]1cn([C@@H]2O[C@H](COP(=O)([O-])OP(=O)(O)OP(=O)(O)O)[C@@H](O)[C@H]2O)c2nc(N)[nH]c(=O)c21	Unstable

Let's switch to this compound now.
Recorded Stability (compound `C[n+]1cn([C@@H]2O[C@H](CO[P@@](=O)(S)OP(=O)([O-])OP(=O)(O)OC[C@H]3O[C@@H](n4cnc5c(=O)[nH]c(N)nc54)[C@H](O)[C@@H]3O)[C@@H](O)[C@H]2O)c2nc(N)nc(O)c21` ): Stable

====

Exercise: for every item that follows, state its recorded IC50.
ASSAYED_TARGET: Eukaryotic translation initiation factor 4E (Oryctolagus cuniculus, UniProt P29338)
ASSAY_PROTOCOL: Inhibition of eukaryotic initiation factor 4E in micrococcal nuclease-pretreated rabbit reticulocyte lysate assessed as inhibition of rabbit beta-[…] mRNA translation by [3H]leucine incorporation assay
Give bare numbers, in µM.

Here is how some compounds turned out for IC50.
C[n+]1cn([C@@H]2O[C@H](CO[P@](=O)(S)OP(=O)(O)OP(=O)(O)OC[C@H]3O[C@@H](n4cnc5c(=O)[nH]c(N)nc54)[C@H](O)[C@@H]3O)[C@@H](O)[C@H]2O)c2nc(N)[n-]c(=O)c21	4.1
C[n+]1cn([C@@H]2O[C@H](COP(=O)(O)OP(=O)([O-])OP(=O)(O)OC[C@H]3O[C@@H](n4cnc5c(=O)[nH]c(N)nc54)[C@H](O)[C@@H]3O)[C@@H](O)[C@H]2O)c2nc(N)[nH]c(=O)c21	17.1

IC50 for Eukaryotic translation initiation factor 4E (Oryctolagus cuniculus, UniProt P29338) with input `C[n+]1cn([C@@H]2O[C@H](CO[P@@](=O)(S)OP(=O)([O-])OP(=O)(O)OC[C@H]3O[C@@H](n4cnc5c(=O)[nH]c(N)nc54)[C@H](O)[C@@H]3O)[C@@H](O)[C@H]2O)c2nc(N)nc(O)c21` equals 12.1

====

ASSAYED_TARGET: Eukaryotic translation initiation factor 4E (Oryctolagus cuniculus)
ASSAY_PROTOCOL: Inhibition of eukaryotic initiation factor 4E in micrococcal nuclease-pretreated rabbit reticulocyte lysate assessed as inhibition of m7,3'-O-GpppG-capped 5'UTRbetaglob-LUC mRNA translation by luciferase-based luminometry
MEASURE: pIC50
Give bare numbers, as −log10 of the molar value.

C[n+]1cn([C@@H]2O[C@H](CO[P@](=O)(S)OP(=O)(O)OP(=O)(O)OC[C@H]3O[C@@H](n4cnc5c(=O)[nH]c(N)nc54)[C@H](O)[C@@H]3O)[C@@H](O)[C@H]2O)c2nc(N)[n-]c(=O)c21	5.96
C[n+]1cn([C@@H]2O[C@H](CO[P@@](=O)(S)OP(=O)([O-])OP(=O)(O)OC[C@H]3O[C@@H](n4cnc5c(=O)[nH]c(N)nc54)[C@H](O)[C@@H]3O)[C@@H](O)[C@H]2O)c2nc(N)nc(O)c21	5.42
C[n+]1cn([C@@H]2O[C@H](COP(=O)(O)OP(=O)([O-])OP(=O)(O)OC[C@H]3O[C@@H](n4cnc5c(=O)[nH]c(N)nc54)[C@H](O)[C@@H]3O)[C@@H](O)[C@H]2O)c2nc(N)[nH]c(=O)c21	5.08

Please fill in: pIC50 reported for `C[n+]1cn([C@@H]2O[C@H](CO[P@](=O)(S)OP(=O)([O-])OP(=O)(O)O)[C@@H](O)[C@H]2O)c2nc(N)nc(O)c21` = 6.25
